# experimental-protocol: qHTS of pediatric cancer cell lines to identify multiple opportunities for drug repurposing: Confirmatory screen for RD cells (AID 1347124);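 also: cells exposed to compound for 48 h before viability readout; nearly all actives have a fitted effect of over 65% in size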; also: potency is read from the fitted curve at half-maximal effect
# condition-notes: RD rhabdomyosarcoma cell viability; series mostly up to 45.9 µM
Inconclusive results are not listed. Active and inactive are the calls of the source. Calls follow the shape of the dose curve; as a rule, active = well fitted cell-killing curve with a large enough effect; inconclusive = small, poorly fitted or top-dose-only effect, or effect the other way; inactive = no such curve, though single readings can be large or run the other way.
assay-readout: Potency

Here is how some compounds turned out for Potency.
compound	Potency
Cc1cc(OCCOCC[N+](C)(C)Cc2ccccc2)ccc1C(C)(C)CC(C)(C)C	10.4 µM (active)
CCC(=O)O[C@]1(C(=O)COC)[C@@H](C)C[C@H]2[C@@H]3CCC4=CC(=O)C=C[C@]4(C)C3(F)[C@@H](O)C[C@@]21C (some centres not stated)	inactive
CC(C)(C)CC(=O)OCC(=O)[C@@]1(O)CC[C@H]2[C@@H]3CCC4=CC(=O)C=C[C@]4(C)[C@H]3[C@@H](O)C[C@@]21C	inactive
CCC1=C[C@@H]2CN(C1)Cc1c([nH]c3ccccc13)[C@@](C(=O)OC)(c1cc3c(cc1OC)N(C)[C@H]1[C@@](O)(C(=O)OC)[C@H](OC(C)=O)[C@]4(CC)C=CCN5CC[C@]31[C@@H]54)C2	0.0293 µM (active)
C[C@H]1C[C@H]2[C@@H]3CCC4=CC(=O)C=C[C@]4(C)[C@H]3C(=O)C[C@]2(C)[C@@]1(O)C(=O)CO	2.93 µM (active)
CCc1cc2cc(OC)c(OC)cc2c(Cc2ccccc2)n1	inactive

Q: Entry CCCCC(CC)CNC(=O)CC(C)OC(=O)CCC(=O)O (configuration not stated) : reported Potency = ?
Result: inactive
